What AC50 was measured for each of the following?
measured-target: 5-hydroxytryptamine receptor 2B (Homo sapiens); note: assay procedure not described here
Sequence (P41595 whole entry): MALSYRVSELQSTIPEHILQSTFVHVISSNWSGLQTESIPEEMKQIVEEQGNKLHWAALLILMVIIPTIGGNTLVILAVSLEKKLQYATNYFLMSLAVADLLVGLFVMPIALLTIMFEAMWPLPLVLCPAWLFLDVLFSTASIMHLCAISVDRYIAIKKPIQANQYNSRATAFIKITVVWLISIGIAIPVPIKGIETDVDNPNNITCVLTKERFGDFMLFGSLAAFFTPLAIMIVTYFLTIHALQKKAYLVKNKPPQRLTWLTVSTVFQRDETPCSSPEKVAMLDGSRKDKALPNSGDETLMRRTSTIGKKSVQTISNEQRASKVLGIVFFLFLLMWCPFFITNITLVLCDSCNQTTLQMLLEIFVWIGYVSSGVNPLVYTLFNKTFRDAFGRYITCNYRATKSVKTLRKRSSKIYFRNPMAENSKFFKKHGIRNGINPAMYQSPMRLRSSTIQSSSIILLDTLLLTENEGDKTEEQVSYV
Format: functional, cell-based

Reported AC50 for O=C(Cc1cccs1)N[C@@H]1C(=O)N2C(C(=O)[O-])=C(C[n+]3ccccc3)CS[C@H]12 was > 30 µM

Reported AC50 for CC(C)CN(C[C@@H](O)[C@H](Cc1ccccc1)NC(=O)O[C@H]1CCOC1)S(=O)(=O)c1ccc(N)cc1 was > 10 µM

Reported AC50 for CC(C)(N)Cc1ccccc1 was > 10 µM

Reported AC50 for CC1=C(/C=C/C(C)=C/C=C/C(C)=C/C(=O)Oc2c(C)c(C)c3c(c2C)CCC(C)(CCCC(C)CCCC(C)CCCC(C)C)O3)C(C)(C)CCC1 (stereo not given) was > 30 µM

Reported AC50 for CC1=C(CC(=O)O)c2cc(F)ccc2/C1=C\c1ccc([S+](C)[O-])cc1 (stereo not given) was > 10 µM
